Assay: Hematology assays after subcutaneous administration in CD-1 mice (Example 6)
Type: in vivo
Conditions: 50 mg/kg subcutaneous twice weekly for 7 weeks
Strand notation (5' to 3'): a small letter for the sugar, then the base; units joined by * are phosphorothioate-linked, units joined directly phosphodiester-linked; [ ] holds rarer units or linkages, { } end groups; capitals alone tell only the bases. k = constrained ethyl (cEt); [5mC] = 5-methylcytosine; d = 2'-deoxy (DNA)
Please respond with reported Hematocrit for every item in the list.
Returns: string containing the numeric result and its unit.

Past entries and their recorded results:
substance	parameter	result
830025 (antisense TTTGTAAATCGAAAGC; 3-10-3 cEt gapmer, further chemistry not given here) [compound 830025]	Hematocrit	38.7%
790615 (CCAATGAGAATGCTTC; 3-10-3 cEt gapmer, further chemistry not given here) [compound 790615]	Hematocrit	46.2%
830121 (AGAATCAAGCCCTGGC; 3-10-3 cEt gapmer, further chemistry not given here) [compound 830121]	Hematocrit	40.4%
799144 (antisense kT*kT*kG*dG*dG*dT*dT*dA*dT*dG*dA*d[5mC]*dG*kG*kA*k[5mC]) [compound 799144]	Hematocrit	43.1%
798781 (CGTAAGATTCACAGCA; 3-10-3 cEt gapmer, further chemistry not given here) [compound 798781]	Hematocrit	42.3%

Batch request: Hematocrit for each of the following substances.
1. 829994 (GGAGGCAGGGCCGCGA; 3-10-3 cEt gapmer, further chemistry not given here) [compound 829994]
2. 830027 (antisense kA*kA*k[5mC]*d[5mC]*dA*dT*dT*dT*dA*dT*d[5mC]*dT*dG*kG*kT*kG) [compound 830027]

1. 36.6%
2. 44.7%

* * *

Please respond with reported Mouse Smad7 mRNA expression (% inhibition), Liver for every item in the list.
Test system: mouse Smad7 mRNA
Assay: Murine Smad7 mRNA expression after oral administration in BALB/c mice (Example 11)
Format: in vivo
Conditions: 500 mg/kg/day oral for 3 weeks, 24 hours after last dose, liver
k = constrained ethyl (cEt); d = 2'-deoxy (DNA)
One number for each entry, in % inhibition.

Past entries and their recorded results:
substance	target desc	number
798781 (CGTAAGATTCACAGCA; 3-10-3 cEt gapmer, further chemistry not given here) [compound 798781]	mouse Smad7 mRNA	0
772797 (AATGAACTGTATCTCC; sugars from the 5' end k3 d10 k3, all phosphorothioate, methylation of C not given here) [compound 772797]	mouse Smad7 mRNA	7
830025 (antisense TTTGTAAATCGAAAGC; 3-10-3 cEt gapmer, further chemistry not given here) [compound 830025]	mouse Smad7 mRNA	25

Please look at the following substance next.
Record 790615 (CCAATGAGAATGCTTC; 3-10-3 cEt gapmer, further chemistry not given here) [compound 790615] ; system mouse Smad7 mRNA; Mouse Smad7 mRNA expression (% inhibition), Liver = 52

* * *

Test system: human SMAD7 mRNA
Test: Antisense inhibition of human SMAD7 mRNA expression in Hep3B cells by 3-10-3 cEt gapmers, 10,000 nM, electroporation (Example 2)
Format: cell-based
Conditions: Hep3B cells, electroporation with 10,000 nM antisense oligonucleotide, approximately 24 hours, SMAD7 mRNA by RT-PCR (RTS5062), relative to untreated control cells
Strand notation (5' to 3'): a small letter for the sugar, then the base; units joined by * are phosphorothioate-linked, units joined directly phosphodiester-linked; [ ] holds rarer units or linkages, { } end groups; capitals alone tell only the bases. k = constrained ethyl (cEt); [5mC] = 5-methylcytosine; d = 2'-deoxy (DNA)
parameter: % Inhibition (%)
Numbers only, in %.

Past entries and their recorded results:
substance	% Inhibition / %
798828 (kA*kT*k[5mC]*d[5mC]*dA*dG*dA*dG*dA*dG*dG*dG*d[5mC]*kT*k[5mC]*k[5mC]; antisense) [compound 798828]	18
799429 (antisense k[5mC]*kA*k[5mC]*dA*dA*dG*dT*d[5mC]*dA*d[5mC]*dA*dA*d[5mC]*kT*kG*kG) [compound 799429]	74
800000 (k[5mC]*kA*kT*dT*dT*dA*dG*dG*dA*dA*d[5mC]*dA*dA*kG*kG*kG; antisense) [compound 800000]	37
830103 (kA*kA*kG*d[5mC]*d[5mC]*d[5mC]*dG*d[5mC]*dT*d[5mC]*dT*d[5mC]*dA*kG*k[5mC]*k[5mC]; antisense) [compound 830103]	39
830143 (antisense kG*kG*kT*dG*dT*dG*d[5mC]*dA*d[5mC]*d[5mC]*dA*dG*dG*kT*kG*kA) [compound 830143]	62
798753 (kT*kG*k[5mC]*dA*dG*dT*d[5mC]*d[5mC]*dA*dG*dG*d[5mC]*dG*kG*k[5mC]*k[5mC]; antisense) [compound 798753]	0

Batch request: % Inhibition for each of the following substances.
1. 830089 (kA*kA*kG*dA*d[5mC]*d[5mC]*d[5mC]*dT*dG*dT*dA*dA*dG*k[5mC]*kT*kT; antisense) [compound 830089]
2. 798670 (kG*kG*k[5mC]*dG*dG*d[5mC]*dG*dG*d[5mC]*d[5mC]*d[5mC]*dG*dA*kG*kG*kG; antisense) [compound 798670]
3. 830125 (antisense kT*k[5mC]*k[5mC]*dG*dA*dG*dG*d[5mC]*dA*d[5mC]*d[5mC]*dA*d[5mC]*kA*kT*kT) [compound 830125]
4. 830127 (antisense k[5mC]*k[5mC]*kT*d[5mC]*d[5mC]*dG*dA*dG*dG*d[5mC]*dA*d[5mC]*d[5mC]*kA*k[5mC]*kA) [compound 830127]
5. 830172 (antisense k[5mC]*kT*kG*d[5mC]*dT*d[5mC]*dT*dG*dT*dT*dT*dG*dG*kA*k[5mC]*kA) [compound 830172]
6. 790479 (kG*kG*k[5mC]*dA*dG*d[5mC]*dA*dG*dG*dA*dG*dG*d[5mC]*kA*k[5mC]*kG; antisense) [compound 790479]

1. 9
2. 44
3. 46
4. 62
5. 27
6. 43
